assayInfo: Mouse PK, single oral gavage
conditionDetails: mouse, in vivo, po, 0.3 mg/kg, Mouse AUC, oral gavage, single dose 0.3 mg/kg, 20% PEG400 in oleic acid-rich triglyceride
Lab note - cut at 5 µM·h for AUC: met if strictly below, not met if not.

>>> assignedcategory("O=C(Nc1ccc(OC(F)(F)F)c(F)c1)NC1CCN(C(=O)C2CCCOC2)CC1 (centres unmarked)")
"met"
>>> assignedcategory("CC[C@H](C)C(=O)N1CCC(CC(=O)Nc2ccc(OC(F)(F)F)c(F)c2)CC1")
"met"
>>> assignedcategory("O=C(Nc1ccc(OC(F)(F)F)cc1)NC1CCN(C(=O)C2CCCOC2)CC1 (centres unmarked)")
"met"
>>> assignedcategory("CC(C)C(=O)N1CCC(NC(=O)Nc2ccc(C(F)(F)F)c(F)c2)CC1")
"not met"
>>> assignedcategory("O=C(Nc1ccc(C(F)(F)F)c(F)c1)NC1CCN(C(=O)C2CCOCC2)CC1")
"met"
>>> assignedcategory("Cc1ccoc1C(=O)N1CCC(NC(=O)Nc2ccc(OC(F)(F)F)cc2)CC1")
"met"
>>> assignedcategory("O=C(Nc1ccc(C(F)(F)F)cc1)NC1CCN(C(=O)c2ccoc2)CC1")
"met"
>>> assignedcategory("O=C(Nc1ccc(OC(F)(F)F)cc1)NC1CCN(C(=O)[C@@H]2CCOC2)CC1")
"met"
>>> assignedcategory("Cc1occc1C(=O)N1CCC(NC(=O)Nc2ccc(OC(F)(F)F)cc2)CC1")
"not met"
>>> assignedcategory("O=C(Nc1ccc(OC(F)(F)F)c(F)c1)NC1CCN(C(=O)C2CC2)CC1")
"not met"
>>> assignedcategory("O=C(Nc1ccc(OC(F)(F)F)c(F)c1)NC1CCN(C(=O)N2CCOCC2)CC1")
"met"
>>> assignedcategory("O=C(Nc1ccc(C(F)(F)F)cc1)NC1CCN(C(=O)C2CCOCC2)CC1")
"not met"
>>> assignedcategory("O=C(Nc1ccc(C(F)(F)F)cc1)NC1CCN(C(=O)C2CCCOC2)CC1 (centres unmarked)")
"met"
>>> assignedcategory("O=C(Nc1ccc(OC(F)(F)F)c(F)c1)NC1CCN(C(=O)[C@@H]2CCOC2)CC1")
"met"
>>> assignedcategory("O=C(Nc1ccc(C(F)(F)F)cc1)NC1CCN(C(=O)C2CCOC2)CC1 (centres unmarked)")
"met"
>>> assignedcategory("O=C(Nc1ccc(OC(F)(F)F)c(F)c1)NC1CCN(C(=O)C2(C(F)(F)F)CC2)CC1")
"met"
